All figures here come from ChEMBL document CHEMBL3734677.

Test system: Trypanosoma brucei brucei
Test: Antiparasitic activity against bloodstream Trypanosoma brucei bruei CA427 after 48 hrs by cytometry
Assay type: functional, organism-based
Details: CA427, 48 h
Property Label: pEC50
pEC50 is defined as minus the log10 of a concentration measured in mol/L.

Input line: GET /values?readout=pEC50&item= `Fc1cccc(COc2ccc(Nc3ncnc4cc(C#C[C@@H]5CCCN5)sc34)cc2Cl)c1`
Output line: 6.59

----------
System: Trypanosoma brucei
Assay: Antiparasitic activity against Trypanosoma brucei at 5 uM after 48 hrs by cytometry
Format: functional
Task for the reader: assign each of the following molecules its reported inhibition at 5 µM.
Reply with just the number (in %).

Input line: GET /values?readout=inhibition at 5 µM&item= `O=C(c1cccc(-c2cc3ncnc(Nc4ccc(OCc5cccc(F)c5)c(Cl)c4)c3s2)c1)N1CCCCC1`
Output line: 46

Input line: GET /values?readout=inhibition at 5 µM&item= `Fc1cccc(COc2ccc(Nc3ncnc4cc(-c5ccccc5Oc5ccccc5)sc34)cc2Cl)c1`
Output line: 10

Input line: GET /values?readout=inhibition at 5 µM&item= `Fc1cccc(COc2ccc(Nc3ncnc4ccsc34)cc2Cl)c1`
Output line: 1

Input line: GET /values?readout=inhibition at 5 µM&item= `Fc1cccc(COc2ccc(Nc3ncnc4cc(-c5cc6ccccc6s5)sc34)cc2Cl)c1`
Output line: 8

Input line: GET /values?readout=inhibition at 5 µM&item= `Fc1cccc(COc2ccc(Nc3ncnc4sc(-c5ccc(CN6CCOCC6)cc5)cc34)cc2Cl)c1`
Output line: 60

Input line: GET /values?readout=inhibition at 5 µM&item= `Fc1cccc(COc2ccc(Nc3ncnc4cc(-c5cccc(N6CCOCC6)c5)sc34)cc2Cl)c1`
Output line: 42

----------
System: Trypanosoma cruzi
Assay: Antiparasitic activity against Trypanosoma cruzi
Assay type: functional, organism-based
Task for the reader: assign each of the following compounds its reported pEC50.
pEC50 is defined as minus the log10 of a concentration measured in mol/L.

Input line: GET /values?readout=pEC50&item= `Fc1cccc(COc2ccc(Nc3ncnc4ccccc34)cc2Cl)c1`
Output line: 5.62

Input line: GET /values?readout=pEC50&item= `Fc1cccc(COc2ccc(Nc3ncnc4ccc(-c5ccccc5)cc34)cc2Cl)c1`
Output line: 5.74

Input line: GET /values?readout=pEC50&item= `CC(C)(C)NS(=O)(=O)c1ccccc1-c1cc2ncnc(Nc3ccc(OCc4cccc(F)c4)c(Cl)c3)c2s1`
Output line: 6.17

Input line: GET /values?readout=pEC50&item= `Oc1ccc(-c2cc3ncnc(Nc4ccc(OCc5cccc(F)c5)c(Cl)c4)c3s2)cc1`
Output line: 6.12

Input line: GET /values?readout=pEC50&item= `O=C(c1cccc(-c2cc3ncnc(Nc4ccc(OCc5cccc(F)c5)c(Cl)c4)c3s2)c1)N1CCCCC1`
Output line: 5.49

----------
Test system: Trypanosoma cruzi
Assay: Antiparasitic activity against Trypanosoma cruzi
Assay type: functional, organism-based
Task for the reader: assign each of the following molecules its reported pEC50.
pEC50 is defined as minus the log10 of a concentration measured in mol/L.

Input line: GET /values?readout=pEC50&item= `CS(=O)(=O)c1cccc(-c2cc3ncnc(Nc4ccc(OCc5cccc(F)c5)c(Cl)c4)c3s2)c1`
Output line: 5.57

Input line: GET /values?readout=pEC50&item= `Fc1cccc(COc2ccc(Nc3ncnc4sc(-c5ccc(CN6CCOCC6)cc5)cc34)cc2Cl)c1`
Output line: 5.77

Input line: GET /values?readout=pEC50&item= `Fc1cccc(COc2ccc(Nc3ncnc4ccc(-c5ccc(CN6CCOCC6)cc5)cc34)cc2Cl)c1`
Output line: 6.22

Input line: GET /values?readout=pEC50&item= `CC(C)(C)NS(=O)(=O)c1ccccc1-c1ccc2ncnc(Nc3ccc(OCc4cccc(F)c4)c(Cl)c3)c2c1`
Output line: 5.19

Input line: GET /values?readout=pEC50&item= `Cc1cc(-c2cc3ncnc(Nc4ccc(OCc5cccc(F)c5)c(Cl)c4)c3s2)cnc1N1CCOCC1`
Output line: 5.48

Input line: GET /values?readout=pEC50&item= `CC(C)(C)OCc1ccc(-c2ccc3ncnc(Nc4ccc(OCc5cccc(F)c5)c(Cl)c4)c3c2)cc1`
Output line: 5.66

Input line: GET /values?readout=pEC50&item= `CS(=O)(=O)c1cccc(-c2cc3c(Nc4ccc(OCc5cccc(F)c5)c(Cl)c4)ncnc3s2)c1`
Output line: 5.62

Input line: GET /values?readout=pEC50&item= `CS(=O)(=O)c1cccc(-c2ccc3ncnc(Nc4ccc(OCc5cccc(F)c5)c(Cl)c4)c3c2)c1`
Output line: 5.30
